Test system: L1210 leukemia ip in BDF1 mice, survival T/C
Measurement notes: NCI In Vivo Anticancer Drug Screen. Data for tumor model L1210 Leukemia (intraperitoneal) in B6D2F1 (BDF1) mice
Details: endpoint: mean survival time; dose: 75.0 mg/kg/injection; schedule: Q01DX001 (ip); vehicle: other; higher = longer survival
Toxic doses and inconclusive results are not listed.
Measured metric: T/C

COC1OC(COC(=O)OCC(Cl)(Cl)Cl)C(OC(=O)OCC(Cl)(Cl)Cl)C(OC(=O)OCC(Cl)(Cl)Cl)C1OC(=O)OCC(Cl)(Cl)Cl (stereo not given) ... 90 % of control

T/C for OC(c1nc2ccc(Cl)cc2[nH]1)C(O)c1nc2ccc(Cl)cc2[nH]1 (stereo not given) is 102 % of control

T/C for CC1(O)CC(=O)C2C3C=CC(C3)C21 (stereo not given) is 98 % of control

T/C for `CCCCNC(=S)Nc1ccccc1` is 117 % of control

T/C for O=C(NCCN1CCCCC1)C(O)(c1ccccc1)C1CCCCC1 (stereo not given) is 97 % of control

====

Test system: L1210 leukemia ip in BDF1 mice, survival T/C
Measurement notes: NCI In Vivo Anticancer Drug Screen. Data for tumor model L1210 Leukemia (intraperitoneal) in B6D2F1 (BDF1) mice
Details: endpoint: mean survival time; dose: 100.0 mg/kg/injection; schedule: Q01DX005 (ip); vehicle: saline; higher = longer survival
Toxic doses and inconclusive results are not listed.
Measured metric: T/C

Below, 4 molecules whose answers are already recorded.
Nc1nc(SCc2ccc([N+](=O)[O-])cc2)c2nc(SCc3ccc([N+](=O)[O-])cc3)n(C3OC(CO)C(O)C3O)c2n1 (stereo not given) ... 118 % of control
CCOC(=O)C1=C(C#N)C(C(=O)OCC)c2ncccc21 (stereo not given) ... 88 % of control
CSC1C(O)C(CO)OC1n1cnc2c(N)ncnc21 (stereo not given) ... 100 % of control
CCOC(=O)c1cn(C2OC(COC(=O)c3ccccc3)C(OC(=O)c3ccccc3)C2OC(=O)c2ccccc2)c(=O)nc1Nc1ccccc1Cl (stereo not given) ... 123 % of control

Now turn to the next molecule.
T/C for O=C1NCCCN1C1OC(CO)C(O)C1O (stereo not given) is 107 % of control

====

Test system: L1210 leukemia ip in BDF1 mice, survival T/C
Measurement notes: NCI In Vivo Anticancer Drug Screen. Data for tumor model L1210 Leukemia (intraperitoneal) in B6D2F1 (BDF1) mice
Details: endpoint: mean survival time; dose: 400.0 mg/kg/injection; schedule: Q04DX003 (ip); vehicle: Klucel (hydroxypropylcellulose) (HPC); higher = longer survival
Inconclusive results and toxic doses are left out.
Measured metric: T/C

CCCCCCCCCCCCCCCCC(=O)CC ... 92 % of control

T/C for `CCOC(=O)c1c(Cl)c(Cl)c(Cl)c(Cl)c1C(=O)OCC` is 105 % of control

T/C for `CN(C)c1ccc(/C=C(/NC(=O)c2ccccc2)C(N)=O)cc1` is 94 % of control

T/C for CCS(=O)(=O)C(S(C)(=O)=O)S(=O)(=O)C(C)C (stereo not given) is 89 % of control

T/C for `O=C(O)CCCCSc1ncnc2nc[nH]c12` is 115 % of control

T/C for `COc1ccc(C(=O)/C=C/c2ccc(OC)c(Br)c2)cc1` is 94 % of control

T/C for `COc1ccc(Cl)cc1NC(=O)Nc1ccccc1` is 92 % of control

T/C for `O=C(O)C1CCOCC1` is 88 % of control

T/C for `CCOC(=O)c1cnc2onc(C)c2c1Nc1cccc(C(F)(F)F)c1` is 101 % of control

T/C for `C[N+]1=CN(c2ccc(Cl)cc2)Cc2cc(Cl)ccc21` is 93 % of control

T/C for `CC1(C)Cc2ccccc2C(c2ccccn2)=N1` is 112 % of control

T/C for `COc1ccc(S(=O)(=O)NC(=O)NC23CC4CC(CC(C4)C2)C3)cc1` is 94 % of control

T/C for `Cc1cc(C)n(N=C2CCCCC2)c(=O)c1C#N` is 89 % of control

T/C for `COc1cc(-c2ccc(N=Nc3nc4nc(N)nc(O)c4[nH]3)c(OC)c2)ccc1N=Nc1nc2nc(N)nc(O)c2[nH]1` is 97 % of control

T/C for `CCOC(=O)c1cnc(SC)nc1NNc1nc(SC)ncc1C(=O)OCC` is 93 % of control

T/C for `CCCCCCCCCCCCCCCCOc1ccc(C(SC)=[N+]2CCCCC2)cc1OC` is 102 % of control

T/C for `COc1cc(C=Nc2cc(Br)c(O)c(Br)c2)ccc1N(CCCCl)CCCCl` is 102 % of control

T/C for `CN(C)C(=O)NCc1ccccc1` is 98 % of control

T/C for `O=C(COc1ccc(Cl)cc1)Nc1ccc(F)cc1` is 95 % of control

T/C for `O=C(NCc1ccccc1)c1ccccc1` is 100 % of control

T/C for `O=C(Nc1ccccc1F)c1ccccc1` is 104 % of control

T/C for `O=c1ccc2c(-c3cc(S(=O)(=O)O)ccc3O)c3ccc(O)cc3oc-2c1` is 91 % of control
